# Test system: ragweed (common ragweed, Ambrosia elatior)
# testName: Test A postemergence, visual injury rating 0-100
# Format: in vivo
# experimentalSetup: 500 g ai/ha, 0 to 100 scale
observedProperty: Ragweed plant response rating
Could you keep your reply to the number by itself?

Prompt line: What Ragweed plant response rating value was documented for this compound, CC1=[N+]([O-])C(C(=O)Nc2cccc(F)c2F)C(c2cc(F)c(C(F)(F)F)c(F)c2)C1 (racemic) ?
Response line: 70

Prompt line: What do you have for CC1=[N+]([O-])[C@@H](C(=O)Nc2cccc(F)c2F)[C@H](c2ccc(C(F)(F)F)cc2)C1 (relative stereo) ?
Response line: 60

Prompt line: What do you have for CC1=[N+]([O-])C(C(=O)Nc2cccc(F)c2F)C(c2cccc(F)c2C)C1 (racemic) ?
Response line: 60

Prompt line: What do you have for CC1=[N+]([O-])C(C(=O)Nc2cccc(F)c2F)C(c2ccc(C)c(Cl)c2)C1 (racemic) ?
Response line: 50

Prompt line: What do you have for CC1=[N+]([O-])C(C(=O)Nc2cccc(F)c2F)C(c2cccc(Br)n2)C1 (racemic) ?
Response line: 0

Prompt line: What do you have for CC1=[N+]([O-])C(C(=O)Nc2cccc(F)c2F)C(c2ccc(C)c(C)c2)C1 (racemic) ?
Response line: 50

Prompt line: What do you have for CC1=[N+]([O-])[C@H](C(=O)Nc2cccc(F)c2F)[C@@H](c2ccc(C(F)F)cc2)C1 (relative stereo) ?
Response line: 70

###

# System: ragweed (common ragweed, Ambrosia elatior)
# testName: Test A postemergence, visual injury rating 0-100
# Assay type: in vivo
# experimentalSetup: 125 g ai/ha, 0 to 100 scale
observedProperty: Ragweed plant response rating

Prompt line: What Ragweed plant response rating value was documented for this molecule, CC1=[N+]([O-])C(C(=O)Nc2cccc(F)c2F)C(c2cc(F)c(C(F)(F)F)c(F)c2)C1 (racemic) ?
Response line: 30

Prompt line: What do you have for CC1=[N+]([O-])C(C(=O)Nc2cccc(F)c2F)C(c2cc(C)cc(Cl)c2)C1 (stereo not shown) ?
Response line: 20

Prompt line: What do you have for COc1cc(C2CC(C)=[N+]([O-])C2C(=O)Nc2cccc(F)c2F)ccc1C(F)(F)F (stereo not shown) ?
Response line: 20

Prompt line: What do you have for CC1=[N+]([O-])C(C(=O)Nc2ccncc2C(F)(F)F)C(c2ccc(C(F)(F)F)cc2)C1 (racemic) ?
Response line: 0

###

# Tested on: foxtail, giant (giant foxtail, Setaria faberii)
# testName: Test A postemergence, visual injury rating 0-100
# Type: in vivo
# experimentalSetup: 500 g ai/ha, 0 to 100 scale
observedProperty: Foxtail, Giant plant response rating
Could you keep your reply to the number by itself?

Prompt line: What Foxtail, Giant plant response rating value was documented for this molecule, CC1=[N+]([O-])C(C(=O)Nc2cccc(F)c2F)C(c2cc(C(F)(F)F)cc(C(F)(F)F)c2)C1 (racemic) ?
Response line: 90

Prompt line: What do you have for CCc1cc(CC)cc(C2CC(C)=[N+]([O-])C2C(=O)Nc2cccc(F)c2F)c1 (racemic) ?
Response line: 90

Prompt line: What do you have for COc1cc(OC)cc(C2CC(C)=[N+]([O-])C2C(=O)Nc2cccc(F)c2F)c1 (stereo not drawn) ?
Response line: 90

Prompt line: What do you have for CC1=[N+]([O-])C(C(=O)Nc2cccc(F)c2F)C(c2ccc(C(F)(F)F)cn2)C1 (racemic) ?
Response line: 10

Prompt line: What do you have for CC1=[N+]([O-])C(C(=O)Nc2cccc(F)c2F)C(c2ccc(C)c(Br)c2)C1 (racemic) ?
Response line: 60

Prompt line: What do you have for CC1=[N+]([O-])C(C(=O)Nc2cccc(F)c2F)C(c2cccc(Cl)c2)C1 (racemic) ?
Response line: 90

Prompt line: What do you have for CC1=[N+]([O-])C(C(=O)Nc2cccc(F)c2F)C(c2ccc(Cl)c(F)c2)C1 (racemic) ?
Response line: 90

Prompt line: What do you have for CC1=[N+]([O-])C(C(=O)Nc2cccc(F)c2F)C(c2cccc(F)c2)C1 (racemic) ?
Response line: 90

Prompt line: What do you have for COc1cc(C2CC(C)=[N+]([O-])C2C(=O)Nc2cccc(F)c2F)ccc1C(F)(F)F (stereo not drawn) ?
Response line: 90

Prompt line: What do you have for CCOc1cc(OC)cc(C2CC(C)=[N+]([O-])C2C(=O)Nc2cccc(F)c2F)c1 (racemic) ?
Response line: 90

Prompt line: What do you have for CC1=[N+]([O-])C(C(=O)Nc2cccc(F)c2F)C(c2ccc(F)c(C(F)(F)F)c2)C1 (racemic) ?
Response line: 90

Prompt line: What do you have for CC1=[N+]([O-])C(C(=O)Nc2cccc(F)c2F)C(c2cccc(C)c2C)C1 (racemic) ?
Response line: 90

Prompt line: What do you have for CC1=[N+]([O-])C(C(=O)Nc2cccc(F)c2F)C(c2cc(C)cc(C)c2)C1 (racemic) ?
Response line: 90

Prompt line: What do you have for CC1=[N+]([O-])C(C(=O)Nc2cccc(F)c2F)C(c2ccc(F)c(F)c2)C1 (racemic) ?
Response line: 90

Prompt line: What do you have for COc1ccc(C2CC(C)=[N+]([O-])C2C(=O)Nc2cccc(F)c2F)cc1C(F)(F)F (racemic) ?
Response line: 80
